Test Description: Hematology assays in cynomolgus monkeys (Example 45)
Format: in vivo
Stated Conditions: day 57
Quantity Name: lymphocytes (%)
Numbers only; they are read as %.

What measured lymphocytes goes with ISIS 416850: MOE gapmer, nucleobases 1275 to 1318 of SEQ ID NO: 1 (Table 8) (antisense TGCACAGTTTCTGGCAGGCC; MOE gapmer, wing and gap sizes not given here) ?
45

What measured lymphocytes goes with ISIS 416838: MOE gapmer, nucleobases 1018 to 1042 of SEQ ID NO: 1 (Table 6) (antisense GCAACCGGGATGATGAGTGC; MOE gapmer, wing and gap sizes not given here) ?
63

What measured lymphocytes goes with ISIS 417002: MOE gapmer, nucleobases 1275 to 1318 of SEQ ID NO: 1 (Table 8) (antisense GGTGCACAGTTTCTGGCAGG; MOE gapmer, wing and gap sizes not given here) ?
40

What measured lymphocytes goes with ISIS 416864: MOE gapmer, nucleobases 1275 to 1318 of SEQ ID NO: 1 (Table 8) (antisense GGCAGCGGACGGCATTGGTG; MOE gapmer, wing and gap sizes not given here) ?
39

What measured lymphocytes goes with ISIS 416858: MOE gapmer, nucleobases 1275 to 1318 of SEQ ID NO: 1 (Table 8) (antisense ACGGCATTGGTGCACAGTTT; MOE gapmer, wing and gap sizes not given here) ?
51
